# Test method notes: xn = mol fraction of the nth substance listed, in the solute-free solvent
# Assay conditions: 288.15 K; x2 = 0.4
Reported metric: solubility (g/100 g solution)
Number only, please.

Sample answers from the record:
{"columns": ["Compound", "solubility (g/100 g solution)"],
 "data": [
  ["COC1=CC(=O)CC(C)C12Oc1c(Cl)c(OC)cc(OC)c1C2=O (centres undefined) + CC(=O)CC(C)C + CC(C)O", 0.519],
  ["O=C1CCc2ccc(OCCCCN3CCN(c4cccc(Cl)c4Cl)CC3)cc2N1 + CCC(C)=O + CC(C)=O", 1.43],
  ["CC(=O)OC(c1ccccc1)C(Cl)(Cl)Cl (centres undefined) + CCO + O", 0.237]
]}

Exercise: Data request, read-out solubility (g/100 g solution), for CCCCOc1ccc(C(=O)CCN2CCCCC2)cc1.Cl + CCO + O
Solution: 39.2
